Each recorded value in this set is attributed to ChEMBL document CHEMBL6103565.

system: Candida albicans; assay: Antifungal activity against Candida albicans assessed as diameter of zone inhibition by disc diffusion method; assay type: functional; further: test concentration or dose not given here
Response key: Condition met means inhibition zone (IZ) >= 20 mm; Condition not met means inhibition zone (IZ) < 20 mm.

CC1=NN2C(C(=O)c3ccc(C)cc3)CC(C#N)C2c2ccccc21 (stereo not drawn)	Condition not met
Cc1ccc(C(=O)C2CC(C#N)C3c4ccccc4C=NN23)cc1 (stereo not drawn)	Condition not met
COC(=O)c1c(C(=O)OC)c2c3ccccc3cnn2c1C(=O)c1ccc(C)cc1	Condition not met
CCOC(=O)c1cc(C(=O)c2ccc(C)cc2)n2ncccc12	Condition not met
CC1=CC2C(C#N)CC(C(=O)c3ccc(Br)cc3)N2C=N1 (stereo not drawn)	Condition met
CCOC(=O)c1c(C(=O)OCC)c2cc(C)ncn2c1C(=O)c1ccc(OC)cc1	Condition met

Reported inhibition zone (IZ) reaches at least 20 mm for `CCOC(=O)c1cc(C(=O)c2ccc(C)cc2)n2ncc3ccccc3c12` ?
Condition not met

Reported inhibition zone (IZ) reaches at least 20 mm for `CCOC(=O)c1c(C(=O)OCC)c2cc(C)ncn2c1C(=O)c1ccc([N+](=O)[O-])cc1` ?
Condition met

Reported inhibition zone (IZ) reaches at least 20 mm for `COC(=O)c1c(C(=O)OC)c2c3ccccc3c(C)nn2c1C(=O)c1ccc(C)cc1` ?
Condition not met

Reported inhibition zone (IZ) reaches at least 20 mm for `COC(=O)c1c(C(=O)OC)c2cccnn2c1C(=O)c1ccc(C)cc1` ?
Condition not met

Reported inhibition zone (IZ) reaches at least 20 mm for CC1=NN2C(C(=O)c3ccc(C)cc3)C3C(=O)N(c4ccccc4)C(=O)C3C2c2ccccc21 (stereo not drawn) ?
Condition not met

Reported inhibition zone (IZ) reaches at least 20 mm for Cc1ccc(C(=O)C2CC(C#N)C3C=CC=NN23)cc1 (stereo not drawn) ?
Condition not met

Reported inhibition zone (IZ) reaches at least 20 mm for COc1ccc(C(=O)C2CC(C#N)C3C=C(C)N=CN23)cc1 (stereo not drawn) ?
Condition met
